Where these numbers come from: patent US5506262A

Tested on: C. tropicalis MY1012
measurement_label: MIC (µg/mL)

compound="C=C(CC[C@]12O[C@H](C(=O)Nc3ccncn3)[C@@](O)(C(=O)O)[C@](C(=O)O)(O1)[C@H](OC(=O)/C=C/[C@@H](C)C[C@@H](C)CC)[C@H]2O)[C@@H](OC(C)=O)[C@H](C)Cc1ccccc1 [Compound 12n, IA-3-(4-amidopyrimidine)]" measurement_label=MIC measurement_unit=µg/mL measured_number=8

I: C=C(CC[C@]12O[C@H](C(=O)O)[C@@](O)(C(=O)O)[C@](C(=O)O)(O1)[C@H](OCCCCCCCCCCOc1ccc(OC)c(OC)c1)[C@H]2O)[C@@H](OC(C)=O)[C@H](C)Cc1ccccc1 [5q"']
II: C=C(CC[C@]12O[C@H](C(N)=O)[C@@](O)(C(=O)O)[C@](C(=O)O)(O1)[C@H](OC(=O)/C=C/[C@@H](C)C[C@@H](C)CC)[C@H]2O)[C@@H](OC(C)=O)[C@H](C)Cc1ccccc1 [Compound 12a, IA-3-carboxamide]
Which shows the larger MIC value: I or II ? # answer = label of selected item
I
